Attribution: ChEMBL document CHEMBL1140196

Test system: Macrophomina phaseolina
Experiment: Antifungal activity against Rhizoctonia bataticola at 50 ug/mL after 48 hrs by cup-plate method
Assay type: functional
Conditions: read-out: IZ
# zone of inhibition at 50 µg/mL >= 80 mm gives Fulfilled, anything below gives Not fulfilled

compound: Cc1ccc2c(COc3ccc(Br)cc3)cc(=O)oc2c1
assigned_category: Fulfilled
//
compound: CN(C)C=O [DIMETHYLFORMAMIDE]
assigned_category: Not fulfilled
//
compound: Cc1cccc2c(COc3ccc(F)cc3)cc(=O)[nH]c12
assigned_category: Fulfilled

---

Assay: Acute toxicity in ip dosed albino mouse after 24 hrs
Type: organism-based
Settings: in vivo
Below: a set of entries, each annotated with reported LD50 at 24 h.

input_smiles: O=c1cc(CNc2ccc(F)cc2)c2ccc(Cl)cc2[nH]1
LD50 at 24 h: > 700 mg/kg

input_smiles: O=c1cc(CNc2ccc(F)cc2)c2ccc3ccccc3c2o1
LD50 at 24 h: > 700 mg/kg

input_smiles: O=c1cc(CNc2ccc(F)cc2)c2cc(Cl)ccc2[nH]1
LD50 at 24 h: > 700 mg/kg

input_smiles: O=c1cc(COc2ccc(F)cc2)c2ccc(Cl)cc2[nH]1
LD50 at 24 h: > 800 mg/kg

input_smiles: O=c1cc(COc2ccc(F)cc2)c2cc(Cl)ccc2[nH]1
LD50 at 24 h: > 800 mg/kg

input_smiles: COc1ccc2c(c1)c(CC(=O)O)c(C)n2C(=O)c1ccc(Cl)cc1
LD50 at 24 h: 15 mg/kg

---

System: Rattus norvegicus
Assay: Antiinflammatory activity in Wistar rat assessed as inhibition of formalin-induced paw oedema volume at 100 mg/kg, po administered 30 mins before formalin challenge after 4 hrs relative to control
Type: functional

input_smiles: O=c1cc(COc2ccc(F)cc2)c2cc(Cl)ccc2o1
measured_target: Rattus norvegicus
inhibition in vivo at 100 mg/kg (%): 71
--
input_smiles: O=c1cc(COc2ccc(F)cc2)c2ccc3ccccc3c2o1
measured_target: Rattus norvegicus
inhibition in vivo at 100 mg/kg (%): 66
--
input_smiles: Cc1ccc2oc(=O)cc(COc3ccc(F)cc3)c2c1
measured_target: Rattus norvegicus
inhibition in vivo at 100 mg/kg (%): 64
--
input_smiles: O=c1cc(COc2ccc(F)cc2)c2ccccc2[nH]1
measured_target: Rattus norvegicus
inhibition in vivo at 100 mg/kg (%): 63
--
input_smiles: Cc1cccc2c(CNc3ccc(F)cc3)cc(=O)[nH]c12
measured_target: Rattus norvegicus
inhibition in vivo at 100 mg/kg (%): 73
--
input_smiles: O=c1cc(CNc2ccc(F)cc2)c2ccc3ccccc3c2o1
measured_target: Rattus norvegicus
inhibition in vivo at 100 mg/kg (%): 71
--
input_smiles: Cc1ccc2c(CNc3ccc(F)cc3)cc(=O)oc2c1
measured_target: Rattus norvegicus
inhibition in vivo at 100 mg/kg (%): 67
--
input_smiles: O=c1cc(CNc2ccc(F)cc2)c2c(ccc3ccccc32)o1
measured_target: Rattus norvegicus
inhibition in vivo at 100 mg/kg (%): 60
--
input_smiles: O=c1cc(COc2ccc(F)cc2)c2cc(Cl)ccc2[nH]1
measured_target: Rattus norvegicus
inhibition in vivo at 100 mg/kg (%): 71
--
input_smiles: O=c1cc(COc2ccc(F)cc2)c2ccc(Cl)cc2[nH]1
measured_target: Rattus norvegicus
inhibition in vivo at 100 mg/kg (%): 66
--
input_smiles: O=c1cc(CNc2ccc(F)cc2)c2ccc(Cl)cc2[nH]1
measured_target: Rattus norvegicus
inhibition in vivo at 100 mg/kg (%): 57
--
input_smiles: O=c1cc(CNc2ccc(F)cc2)c2cc(Cl)ccc2[nH]1
measured_target: Rattus norvegicus
inhibition in vivo at 100 mg/kg (%): 59

---

Below: a set of entries, each annotated with reported inhibition at 50 µg/mL.
Test system: Macrophomina phaseolina
Assay: Antifungal activity against Rhizoctonia bataticola at 50 ug/mL after 48 hrs by cup-plate method
Type: functional

compound: O=c1cc(COc2ccc(F)cc2)c2cc(Cl)ccc2o1
inhibition at 50 µg/mL / %: 74

compound: O=c1cc(COc2ccc(Cl)cc2)c2ccc(Cl)cc2[nH]1
inhibition at 50 µg/mL / %: 35

compound: Cc1cccc2c(COc3ccc(F)cc3)cc(=O)[nH]c12
inhibition at 50 µg/mL / %: 36

compound: Cc1ccc2c(COc3ccc(F)cc3)cc(=O)oc2c1
inhibition at 50 µg/mL / %: 30

compound: COC1=CC(=O)C[C@@H](C)[C@]12Oc1c(Cl)c(OC)cc(OC)c1C2=O [GRISEOFULVIN]
inhibition at 50 µg/mL / %: 100

compound: O=c1cc(COc2ccc(Br)cc2)c2ccc(Cl)cc2[nH]1
inhibition at 50 µg/mL / %: 31

compound: Cc1ccc2c(COc3ccc(Br)cc3)cc(=O)oc2c1
inhibition at 50 µg/mL / %: 32

compound: O=c1cc(COc2ccc(F)cc2)c2cc(Cl)ccc2[nH]1
inhibition at 50 µg/mL / %: 68

compound: O=c1cc(CNc2ccc(F)cc2)c2cc(Cl)ccc2[nH]1
inhibition at 50 µg/mL / %: 56

compound: O=c1cc(CNc2ccc(F)cc2)c2cc(Cl)ccc2o1
inhibition at 50 µg/mL / %: 76

compound: O=c1cc(COc2ccc(Cl)cc2)c2cc(Cl)ccc2[nH]1
inhibition at 50 µg/mL / %: 33

---

Test system: Escherichia coli
Assay: Antibacterial activity against Escherichia coli at 100 ug/mL after 48 hrs by cup-plate method
Format: functional
Below: a set of entries, each annotated with reported inhibition at 100 µg/mL.
reported_endpoint: inhibition at 100 µg/mL

compound: O=c1cc(CNc2ccc(F)cc2)c2cc(Cl)ccc2o1
reported_result: 95%

compound: Cc1ccc2c(CNc3ccc(F)cc3)cc(=O)oc2c1
reported_result: 73%

compound: O=c1cc(COc2ccc(Cl)cc2)c2ccc(Cl)cc2[nH]1
reported_result: 48%

compound: O=c1cc(CNc2ccc(F)cc2)c2cc(Cl)ccc2[nH]1
reported_result: 70%

compound: Cc1ccc2c(COc3ccc(F)cc3)cc(=O)oc2c1
reported_result: 62%

compound: O=c1cc(CNc2ccc(F)cc2)c2ccc(Cl)cc2[nH]1
reported_result: 73%

compound: Cc1ccc2c(COc3ccc(Cl)cc3)cc(=O)oc2c1
reported_result: 65%

compound: O=c1cc(COc2ccc(Br)cc2)c2cc(Cl)ccc2[nH]1
reported_result: 50%

compound: Cc1ccc2c(COc3ccc(Br)cc3)cc(=O)oc2c1
reported_result: 66%

compound: O=c1cc(CNc2ccc(F)cc2)c2ccccc2[nH]1
reported_result: 57%

compound: COC1=CC(=O)C[C@@H](C)[C@]12Oc1c(Cl)c(OC)cc(OC)c1C2=O [GRISEOFULVIN]
reported_result: 100%

compound: Cc1cccc2c(COc3ccc(F)cc3)cc(=O)[nH]c12
reported_result: 57%

compound: Cc1ccc2c(CNc3ccc(Cl)cc3)cc(=O)oc2c1
reported_result: 62%

compound: O=c1cc(COc2ccc(F)cc2)c2cc(Cl)ccc2[nH]1
reported_result: 81%

---

Test system: Aspergillus niger
Test: Antifungal activity against Aspergillus niger at 50 ug/mL after 48 hrs by cup-plate method
Type: functional

input_smiles: COC1=CC(=O)C[C@@H](C)[C@]12Oc1c(Cl)c(OC)cc(OC)c1C2=O
inhibition at 50 µg/mL (%): 100
//
input_smiles: O=c1cc(CNc2ccc(F)cc2)c2ccc(Cl)cc2[nH]1
inhibition at 50 µg/mL (%): 52
//
input_smiles: O=c1cc(COc2ccc(F)cc2)c2ccc(Cl)cc2[nH]1
inhibition at 50 µg/mL (%): 47
//
input_smiles: O=c1cc(CNc2ccc(F)cc2)c2cc(Cl)ccc2o1
inhibition at 50 µg/mL (%): 73
//
input_smiles: Cc1ccc2c(COc3ccc(Cl)cc3)cc(=O)oc2c1
inhibition at 50 µg/mL (%): 22
//
input_smiles: O=c1cc(COc2ccc(F)cc2)c2cc(Cl)ccc2o1
inhibition at 50 µg/mL (%): 71

---

Tested on: Aspergillus niger
Assay: Antifungal activity against Aspergillus niger at 25 ug/mL after 48 hrs by cup-plate method
Assay type: functional
The source made the active and inactive calls. The calls are words filed in the database; no cut-off is given here.

input_smiles: Cc1ccc2c(COc3ccc(Br)cc3)cc(=O)oc2c1
Activity: inactive

input_smiles: Cc1ccc2c(COc3ccc(F)cc3)cc(=O)oc2c1
Activity: inactive

input_smiles: O=c1cc(COc2ccc(Cl)cc2)c2cc(Cl)ccc2[nH]1
Activity: inactive

input_smiles: Cc1ccc2c(CNc3ccc(Cl)cc3)cc(=O)oc2c1
Activity: inactive

input_smiles: O=c1cc(COc2ccc(Cl)cc2)c2ccc(Cl)cc2[nH]1
Activity: inactive

input_smiles: Cc1ccc2c(COc3ccc(Cl)cc3)cc(=O)oc2c1
Activity: inactive

input_smiles: Cc1ccc2c(CNc3ccc(Br)cc3)cc(=O)oc2c1
Activity: inactive
